Molecular target: human AspH (His6-AspH315–758) (Homo sapiens, UniProt Q12797)
Construct: N-Terminally His6-tagged human AspH315–758 (His6-AspH315–758) was produced in Escherichia coli BL21 (DE3) cells; made in house; host or cells: Escherichia coli BL21 (DE3), pET-28a(+) vector
Sequence (Q12797 315-758): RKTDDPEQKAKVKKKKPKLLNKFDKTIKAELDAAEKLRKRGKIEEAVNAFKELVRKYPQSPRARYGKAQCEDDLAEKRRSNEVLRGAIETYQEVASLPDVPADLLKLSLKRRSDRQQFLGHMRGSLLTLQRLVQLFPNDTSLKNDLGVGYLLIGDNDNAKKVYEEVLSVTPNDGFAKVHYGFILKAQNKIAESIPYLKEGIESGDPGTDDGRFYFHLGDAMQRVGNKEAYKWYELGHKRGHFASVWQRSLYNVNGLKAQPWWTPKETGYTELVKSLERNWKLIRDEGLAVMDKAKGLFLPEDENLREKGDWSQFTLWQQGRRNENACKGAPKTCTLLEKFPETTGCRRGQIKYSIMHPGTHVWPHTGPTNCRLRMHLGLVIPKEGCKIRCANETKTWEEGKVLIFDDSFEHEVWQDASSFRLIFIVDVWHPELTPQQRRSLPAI
Assay: SPE-MS AspH inhibition assay (hFX-CP101-119 substrate hydroxylation)
Format: biochemical
Settings: AspH-inhibitor screening, Plate 1-duplicate
Structures can show the parent of a compound that is named as a salt.
So I've got a bunch of molecules here, and I need their Plate 1-duplicate (% inhibition) values.
Answers are plain numbers, in %.

O=C(O)CC[C@H]1CC[C@@](c2cc(F)ccc2F)(S(=O)(=O)c2ccc(Cl)cc2)CC1: 9.89

Hi there! I need Plate 1-duplicate (% inhibition) for each item below, if you can.
1. Cn1c(=O)n(-c2ccc(C(C)(C)C#N)cc2)c2c3cc(-c4cnc5ccccc5c4)ccc3ncc21
2. Cc1c(CN2CCN(C(=O)[C@H](C)O)CC2)sc2c(N3CCOCC3)nc(-c3cnc(N)nc3)nc12
3. CC(C)C(=O)Nc1ccc([N+](=O)[O-])c(C(F)(F)F)c1 [Flutamide]
4. COc1ccc(Cl)c(Nc2nc3ccccc3nc2NS(=O)(=O)c2cccc(NC(=O)C(C)(C)N)c2)c1
5. CNC(=O)c1ccc(N2C(=S)N(c3ccc(C#N)c(C(F)(F)F)c3)C(=O)C2(C)C)cc1F [Enzalutamide]

stdout:
3.83
1.54
10.24
7.32
-6.89

Hi there! I need Plate 1-duplicate (% inhibition) for each item below, if you can.
1. CN1CCN(c2nc(C3=C(c4c[nH]c5ccccc45)C(=O)NC3=O)c3ccccc3n2)CC1
2. CC[C@]1(O)C[C@H]2CN(CCc3c([nH]c4ccccc34)[C@@](C(=O)OC)(c3cc4c(cc3OC)N(C=O)[C@H]3[C@@](O)(C(=O)OC)[C@H](OC(C)=O)[C@]5(CC)C=CCN6CC[C@]43[C@@H]65)C2)C1.O=S(=O)(O)O [Vincristine Sulfate (Oncovin)]
3. CCCCCCCCCCCCCCCCCCOP(=O)([O-])OC1CC[N+](C)(C)CC1
4. CS(=O)(=O)c1ccc(C2=C(c3ccccc3)C(=O)OC2)cc1
5. O=C(c1cc(Cc2n[nH]c(=O)c3ccccc23)ccc1F)N1CCN(C(=O)C2CC2)CC1

stdout:
1. 11.48
2. 3.90
3. -2.15
4. 2.99
5. 14.14

Hi there! I need Plate 1-duplicate (% inhibition) for each item below, if you can.
1. CC(C)n1nc(-c2ccc3oc(N)nc3c2)c2c(N)ncnc21
2. Cl.N[C@@H](Cc1ccc(N(CCCl)CCCl)cc1)C(=O)O [Melphalan hydrochloride]
3. O=C(O)CCCCC(CCSCc1ccccc1)SCc1ccccc1 (centres unmarked)
4. CO[C@H]1C[C@@H]2CC[C@@H](C)[C@@](O)(O2)C(=O)C(=O)N2CCCC[C@H]2C(=O)O[C@H]([C@H](C)C[C@@H]2CC[C@@H](OC(=O)C(C)(CO)CO)[C@H](OC)C2)CC(=O)[C@H](C)/C=C(\C)[C@@H](O)[C@@H](OC)C(=O)[C@H](C)C[C@H](C)/C=C/C=C/C=C/1C
5. FC(F)c1nc2ccccc2n1-c1nc(N2CCOCC2)nc(N2CCOCC2)n1
6. CC[C@H](CC#N)OC(=O)N[C@@H](C)c1cccc(NC(=O)Nc2ccc(-c3cnco3)c(OC)c2)c1
7. CC[C@@]1(O)C(=O)OCc2c1cc1n(c2=O)Cc2cc3c(CN(C)C)c(O)ccc3nc2-1 [Topotecan hydrochloride]

stdout:
1: 4.58; 2: 3.67; 3: -2.45; 4: 28.92; 5: 1.69; 6: -8.24; 7: 6.81
